experiment: Clearance in rat hepatocytes assessed per million cells; assay type: ADME, cell-based, Hepatocyte; conditions: read-out: CLH
Readout Type: hepatocyte CLint (µL/min/1e6 cells)
Respond numerically; units are µL/min/1e6 cells and should not be typed.

The recorded hepatocyte CLint for entry COc1cc(C)[nH]c(=O)c1CN1CCc2c(Cl)cc([C@H](OC)C3COC3)c(Cl)c2C1=O equals 109

====

Recorded measurements of log10 of microsomal CLint, one per entry
system: Liver; test: Intrinsic clearance in human liver microsomes assessed per mg protein at 1 uM preincubated for 10 mins followed by NADPH addition measured after 45 mins by LC-MS/MS analysis; type: ADME, microsome; conditions: microsomes, 0.75 h, 1 µM
Heads up: the numbers are on a log10 scale; they represent microsomal CLint in µL/min/mg.

Known results for compounds:
compound="COC(c1cc(Cl)c2c(c1Cl)C(=O)N(Cc1c(C)cc(C)[nH]c1=O)CC2)C1CCOC1 (single isomer, unassigned; (-)10c)" target_desc=Liver readout_type="log10 of microsomal CLint" data_value=1.97
compound="Cc1cc(C)c(CN2CCc3c(Cl)cc(C(CO)C4CCOCC4)c(Cl)c3C2=O)c(=O)[nH]1 (single isomer, unassigned; (-))" target_desc=Liver readout_type="log10 of microsomal CLint" data_value=1.62
compound="COc1cc(C)[nH]c(=O)c1CN1CCc2c(Cl)cc(C(OC)C3CCN(C(=O)CO)CC3)c(Cl)c2C1=O (single isomer, unassigned; (-))" target_desc=Liver readout_type="log10 of microsomal CLint" data_value=1.10
compound="CCC(O)c1cc(Cl)c2c(c1Cl)C(=O)N(Cc1c(C)cc(C)[nH]c1=O)CC2 (stereo in doubt; (-)-3b)" target_desc=Liver readout_type="log10 of microsomal CLint" data_value=0.90
compound="COC(c1cc(Cl)c2c(c1Cl)C(=O)N(Cc1c(C)cc(C)[nH]c1=O)CC2)C1CCOC1 (single isomer, unassigned; (+))" target_desc=Liver readout_type="log10 of microsomal CLint" data_value=2.11

The recorded log10 of microsomal CLint for entry CCC(OC)c1cc(Cl)c2c(c1Cl)C(=O)N(Cc1c(C)cc(C)[nH]c1=O)CC2 (single isomer, unassigned; (+)) equals 2.02

====

Recorded measurements of microsomal CLint, one per entry
system: Liver; assay: Intrinsic clearance in human liver microsomes assessed per mg protein at 1 uM preincubated for 10 mins followed by NADPH addition measured after 45 mins by LC-MS/MS analysis; type: ADME, microsome; settings: microsomes, 0.75 h, 1 µM
The reply should read as a number followed by its unit.

Known results for compounds:
compound="COc1cc(C)[nH]c(=O)c1CN1CCc2c(Cl)cc(C(OC)C3CCOC3)c(Cl)c2C1=O (stereo in doubt; 22b)" data_value="66.9 µL/min/mg"
compound="COC(c1cc(Cl)c2c(c1Cl)C(=O)N(Cc1c(C)cc(C)[nH]c1=O)CC2)C1CCS(=O)(=O)CC1 (stereo in doubt; (+)-18a)" data_value="40 µL/min/mg"
compound="COC(c1cc(Cl)c2c(c1Cl)C(=O)N(Cc1c(C)cc(C)[nH]c1=O)CC2)C1CCS(=O)(=O)CC1 (single isomer, unassigned; (-))" data_value="15 µL/min/mg"
compound="CCC(CO)c1cc(Cl)c2c(c1Cl)C(=O)N(Cc1c(C)cc(C)[nH]c1=O)CC2 (single isomer, unassigned; (+))" data_value="66.3 µL/min/mg"
compound="CCOC(c1cc(Cl)c2c(c1Cl)C(=O)N(Cc1c(C)cc(C)[nH]c1=O)CC2)C1CS(=O)(=O)C1 (single isomer, unassigned)" data_value="45.7 µL/min/mg"

Result for COC(c1cc(Cl)c2c(c1Cl)C(=O)N(Cc1c(C)cc(C)[nH]c1=O)CC2)C1CS(=O)(=O)C1 (single isomer, unassigned) , tested on Liver, microsomal CLint: 23 µL/min/mg

Result for COC(c1cc(Cl)c2c(c1Cl)C(=O)N(Cc1c(C)cc(C)[nH]c1=O)CC2)C1CCN(C(C)=O)CC1 (single isomer, unassigned; (+)) , tested on Liver, microsomal CLint: 92.6 µL/min/mg

Result for Cc1cc(C)c(CN2CCc3c(Cl)cc(C(CO)c4ccon4)c(Cl)c3C2=O)c(=O)[nH]1 (single isomer, unassigned; (+)) , tested on Liver, microsomal CLint: 21.2 µL/min/mg

====

molecular target: Histone-lysine N-methyltransferase EZH2 (Homo sapiens, UniProt Q15910, Y641N); assay: Inhibition of EZH2 Y641N mutant (unknown origin) using oligonucleosomes as substrate after 60 mins in presence of [3H]SAM by scintillation counting analysis
Sequence (Q15910 whole entry Y641N): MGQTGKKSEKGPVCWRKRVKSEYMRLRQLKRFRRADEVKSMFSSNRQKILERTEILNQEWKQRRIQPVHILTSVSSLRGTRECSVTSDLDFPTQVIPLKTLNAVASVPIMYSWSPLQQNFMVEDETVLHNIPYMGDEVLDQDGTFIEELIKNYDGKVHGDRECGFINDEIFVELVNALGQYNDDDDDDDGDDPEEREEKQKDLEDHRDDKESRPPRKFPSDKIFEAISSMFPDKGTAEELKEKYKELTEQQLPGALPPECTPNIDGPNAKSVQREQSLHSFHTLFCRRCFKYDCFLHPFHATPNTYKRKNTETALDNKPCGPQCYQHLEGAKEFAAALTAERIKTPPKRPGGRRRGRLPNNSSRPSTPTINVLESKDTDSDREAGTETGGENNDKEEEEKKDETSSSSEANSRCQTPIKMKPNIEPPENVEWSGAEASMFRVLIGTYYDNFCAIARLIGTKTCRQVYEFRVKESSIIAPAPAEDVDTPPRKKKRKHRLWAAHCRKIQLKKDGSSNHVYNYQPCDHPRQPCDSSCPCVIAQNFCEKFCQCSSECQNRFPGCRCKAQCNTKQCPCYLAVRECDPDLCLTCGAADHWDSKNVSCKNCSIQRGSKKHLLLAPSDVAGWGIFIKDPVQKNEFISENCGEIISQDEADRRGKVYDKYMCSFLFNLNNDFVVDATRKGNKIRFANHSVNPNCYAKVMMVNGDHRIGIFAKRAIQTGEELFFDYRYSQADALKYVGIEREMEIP
Please use the following Ki ranges when assigning a class: lower level = under 2 nM, middle level = from 2 nM up to 100 nM, upper level = 100 nM and over

See these solved cases before continuing.
molecule=Cc1cc(C)c(CN2CCc3c(Cl)cc([C@H](CO)[C@H]4CCCO4)c(Cl)c3C2=O)c(=O)[nH]1 classification="middle level"
molecule="COC(c1cc(Cl)c2c(c1Cl)C(=O)N(Cc1c(C)cc(C)[nH]c1=O)CC2)C1CCOC1 (single isomer, unassigned; (+))" classification="lower level"
molecule="COC(c1cc(Cl)c2c(c1Cl)C(=O)N(Cc1c(C)cc(C)[nH]c1=O)CC2)C1CCOCC1 (single isomer, unassigned; (-))" classification="upper level"
molecule="CCC(O)c1cc(Cl)c2c(c1Cl)C(=O)N(Cc1c(C)cc(C)[nH]c1=O)CC2 (stereo in doubt; (-)-3b)" classification="upper level"
molecule=Cc1cc(C)c(CN2CCc3c(Cl)cc([C@@H](CO)[C@@H]4CCOC4)c(Cl)c3C2=O)c(=O)[nH]1 classification="upper level"

IN: Category of COc1cc(C)[nH]c(=O)c1CN1CCc2c(Cl)cc(C(OC)C3(C)COC3)c(Cl)c2C1=O (single isomer, unassigned; (+)) , please.
OUT: lower level

IN: Category of COc1cc(C)[nH]c(=O)c1CN1CCc2c(Cl)cc(C(OC)C3CCOC3)c(Cl)c2C1=O (single isomer, unassigned; form 1) , please.
OUT: middle level

IN: Category of CCC(CO)c1cc(Cl)c2c(c1Cl)C(=O)N(Cc1c(C)cc(C)[nH]c1=O)CC2 (stereo in doubt; (-)-5b) , please.
OUT: middle level

IN: Category of COc1cc(C)[nH]c(=O)c1CN1CCc2c(Cl)cc([C@H](O)C3COC3)c(Cl)c2C1=O , please.
OUT: lower level

IN: Category of COC(c1cc(Cl)c2c(c1Cl)C(=O)N(Cc1c(C)cc(C)[nH]c1=O)CC2)C1CCN(C2COC2)CC1 (single isomer, unassigned; (-)) , please.
OUT: upper level

====

assay: Passive permeability in MDCK cells at 2 uM after 90 mins by LC-MS/MS analysis; format: ADME, cell-based, Canis lupus familiaris; conditions: dog, mdck, […], 2 µM
Under this convention, MET denotes permeability strictly below 10 ×10⁻⁶ cm/s and NOT MET denotes permeability at or above 10 ×10⁻⁶ cm/s.

See these solved cases before continuing.
compound="Cc1cc(C)c(CN2CCc3c(Cl)cc(C(CO)C4CCOC4)c(Cl)c3C2=O)c(=O)[nH]1 (stereo in doubt)" classification=MET
compound="COc1cc(C)[nH]c(=O)c1CN1CCc2c(Cl)cc(C(OC)C3CCN(C(=O)CO)CC3)c(Cl)c2C1=O (single isomer, unassigned; (-))" classification=MET
compound="CCC(O)c1cc(Cl)c2c(c1Cl)C(=O)N(Cc1c(C)cc(C)[nH]c1=O)CC2 (stereo in doubt; (-)-3b)" classification="NOT MET"
compound="COc1cc(C)[nH]c(=O)c1CN1CCc2c(Cl)cc(C(OC)C3(C)COC3)c(Cl)c2C1=O (stereo in doubt; (-)-24b)" classification=MET
compound="CCC(OC)c1cc(Cl)c2c(c1Cl)C(=O)N(Cc1c(C)cc(C)[nH]c1=O)CC2 (single isomer, unassigned; (-))" classification="NOT MET"
compound="Cc1cc(C)c(CN2CCc3c(Cl)cc(C(CO)c4ccon4)c(Cl)c3C2=O)c(=O)[nH]1 (stereo in doubt; (-)-21b)" classification=MET
compound="COC(c1cc(Cl)c2c(c1Cl)C(=O)N(Cc1c(C)cc(C)[nH]c1=O)CC2)C1CS(=O)(=O)C1 (single isomer, unassigned)" classification=MET
compound="COC(c1cc(Cl)c2c(c1Cl)C(=O)N(Cc1c(C)cc(C)[nH]c1=O)CC2)C1CCOCC1 (single isomer, unassigned; (-))" classification="NOT MET"

IN: Hello, is permeability of the following compound strictly smaller than 10 ×10⁻⁶ cm/s? COC(c1cc(Cl)c2c(c1Cl)C(=O)N(Cc1c(C)cc(C)[nH]c1=O)CC2)C1CCOC1 (single isomer, unassigned; (-))
OUT: NOT MET

IN: Hello, is permeability of the following compound strictly smaller than 10 ×10⁻⁶ cm/s? COC(c1cc(Cl)c2c(c1Cl)C(=O)N(Cc1c(C)cc(C)[nH]c1=O)CC2)C1CCOC1 (single isomer, unassigned; (-)10c)
OUT: NOT MET

IN: Hello, is permeability of the following compound strictly smaller than 10 ×10⁻⁶ cm/s? COC(C)c1cc(Cl)c2c(c1Cl)C(=O)N(Cc1c(C)cc(C)[nH]c1=O)CC2 (single isomer, unassigned; (+))
OUT: NOT MET

IN: Hello, is permeability of the following compound strictly smaller than 10 ×10⁻⁶ cm/s? COc1cc(C)[nH]c(=O)c1CN1CCc2c(Cl)cc(C(OC)C3CCOC3)c(Cl)c2C1=O (single isomer, unassigned; form 1)
OUT: MET

IN: Hello, is permeability of the following compound strictly smaller than 10 ×10⁻⁶ cm/s? CCOC(c1cc(Cl)c2c(c1Cl)C(=O)N(Cc1c(C)cc(C)[nH]c1=O)CC2)C1CS(=O)(=O)C1 (single isomer, unassigned)
OUT: MET
